Ok so here's the combined literature set: pIC50 for Sortilin (Homo sapiens).
Would you please state pIC50, meaning minus log10 of the concentration in mol/L, as a bare number?

Q: Quick check: pIC50 of CC(C)(C)CC[C@H](NCc1ccc2c(c1)OCCC2)C(=O)O ?
Result: 6.51

Q: Ok, now Cc1cncc(N[C@@H](CCC(C)(C)C)C(=O)O)n1
Result: 6.29

Q: Ok, now CC(C)(C)CC[C@H](NCc1ccc2c(c1)CCC2)C(=O)O
Result: 6.68

Q: Ok, now Cc1cc(N[C@@H](CCC(C)(C)C)C(=O)O)ncn1
Result: 5.54

Q: Ok, now CC(C)(C)CC[C@H](N[C@H](c1ccc2c(c1)OCCC2)C(F)F)C(=O)O
Result: 6.51

Q: Ok, now C[C@@H](N[C@@H](CCC(C)(C)C)C(=O)O)c1ccc2c(c1)OCO2
Result: 6.42

Q: Ok, now C[C@H](N[C@@H](CCC(C)(C)C)C(=O)O)c1ccc2c(c1)CCCO2
Result: 6.64

Q: Ok, now CN1C(=O)CCc2ccc(CN[C@@H](CCC(C)(C)C)C(=O)O)cc21
Result: 6.66

Q: Ok, now CC(C)(C)CCC(C)(NCc1ccc2c(c1)CCCC2)C(=O)O (stereo not drawn)
Result: 6.13

----------
Ok so here's the combined literature set: pIC50 for Sortilin (Homo sapiens, UniProt Q99523).
Would you please state pIC50, meaning minus log10 of the concentration in mol/L, as a bare number?

Q: Quick check: pIC50 of CC(C)(C)CCC(C)(NCc1ccccc1)C(=O)O (racemic) ?
Result: 5.60

Q: Ok, now Cn1c(=O)oc2cc(CN[C@@H](CCC(C)(C)C)C(=O)O)ccc21
Result: 6.33

Q: Ok, now CC(C)(C)CC[C@H](Nc1ccccn1)C(=O)O
Result: 5.66

Q: Ok, now CC(C)(C)CC[C@H](N[C@@H](c1ccc2c(c1)CCC2)C(F)(F)F)C(=O)O
Result: 6.66

----------
Ok so here's the combined literature set: IC50 for UniProt Q99523.
Only the number, expressed in nM, is required.

Q: Quick check: IC50 of CC(C)(C)CC[C@H](NCc1ccc2c(c1)CNCC2)C(=O)O ?
Result: 500

Q: Ok, now CN1C(=O)CCc2cc(CN[C@@H](CCC(C)(C)C)C(=O)O)ccc21
Result: 760

Q: Ok, now CC(C)(C)CC[C@H](NCc1ccnc(Oc2ccccc2)c1)C(=O)O
Result: 230

Q: Ok, now CC(C)(C)CC[C@H](NCc1cccc2c1CCOC2)C(=O)O
Result: 650

Q: Ok, now CC(C)(C)CC[C@H](Nc1cccnc1)C(=O)O
Result: 1810

Q: Ok, now CC(C)(C)CC[C@H](NCc1ccc2c(c1)CCO2)C(=O)O
Result: 700

Q: Ok, now CC(C)(C)CCC(N[C@@H](CCO)c1ccccc1)C(=O)O (mixture of isomers)
Result: 410

Q: Ok, now CC(C)(C)CC[C@H](Nc1ncnc2ccccc12)C(=O)O
Result: 325

Q: Ok, now C[C@@H](N[C@@H](CCC(C)(C)C)C(=O)O)c1cccc2c1OCCO2
Result: 1220

Q: Ok, now CC(C)(C)CC[C@H](NCc1ccc2c(c1)CCCN2)C(=O)O
Result: 570

Q: Ok, now C[C@H](N[C@@H](CCC(C)(C)C)C(=O)O)c1ccc2c(c1)COCC2
Result: 590

Q: Ok, now CC(C)(C)CC[C@H](N[C@@H](c1ccc2c(c1)CCCC2)C(F)F)C(=O)O
Result: 120

Q: Ok, now CC(C)(C)CC[C@](C)(NCc1ccccc1)C(=O)O
Result: 2970

Q: Ok, now CC(C)(C)CC[C@H](NCc1ccc2c(c1)CCNC2)C(=O)O
Result: 900

Q: Ok, now Cc1nccc(N[C@@H](CCC(C)(C)C)C(=O)O)n1
Result: 1310

Q: Ok, now C[C@H](N[C@@H](CCC(C)(C)C)C(=O)O)c1ccc2c(c1)CCOC2
Result: 320

Q: Ok, now CC(C)(C)CC[C@H](NCc1ccc2c(c1)CCC(=O)N2)C(=O)O
Result: 900

Q: Ok, now C[C@@H](N[C@@H](CCC(C)(C)C)C(=O)O)c1ccc2c(c1)CCCC2
Result: 120

Q: Ok, now CC(C)(C)CCC(C)(NCc1cncnc1)C(=O)O (racemic)
Result: 840
